Each entry below carries its measured IC50, system: Rho-associated protein kinase 1 (Homo sapiens, UniProt Q13464).
Sequence (Q13464 whole entry): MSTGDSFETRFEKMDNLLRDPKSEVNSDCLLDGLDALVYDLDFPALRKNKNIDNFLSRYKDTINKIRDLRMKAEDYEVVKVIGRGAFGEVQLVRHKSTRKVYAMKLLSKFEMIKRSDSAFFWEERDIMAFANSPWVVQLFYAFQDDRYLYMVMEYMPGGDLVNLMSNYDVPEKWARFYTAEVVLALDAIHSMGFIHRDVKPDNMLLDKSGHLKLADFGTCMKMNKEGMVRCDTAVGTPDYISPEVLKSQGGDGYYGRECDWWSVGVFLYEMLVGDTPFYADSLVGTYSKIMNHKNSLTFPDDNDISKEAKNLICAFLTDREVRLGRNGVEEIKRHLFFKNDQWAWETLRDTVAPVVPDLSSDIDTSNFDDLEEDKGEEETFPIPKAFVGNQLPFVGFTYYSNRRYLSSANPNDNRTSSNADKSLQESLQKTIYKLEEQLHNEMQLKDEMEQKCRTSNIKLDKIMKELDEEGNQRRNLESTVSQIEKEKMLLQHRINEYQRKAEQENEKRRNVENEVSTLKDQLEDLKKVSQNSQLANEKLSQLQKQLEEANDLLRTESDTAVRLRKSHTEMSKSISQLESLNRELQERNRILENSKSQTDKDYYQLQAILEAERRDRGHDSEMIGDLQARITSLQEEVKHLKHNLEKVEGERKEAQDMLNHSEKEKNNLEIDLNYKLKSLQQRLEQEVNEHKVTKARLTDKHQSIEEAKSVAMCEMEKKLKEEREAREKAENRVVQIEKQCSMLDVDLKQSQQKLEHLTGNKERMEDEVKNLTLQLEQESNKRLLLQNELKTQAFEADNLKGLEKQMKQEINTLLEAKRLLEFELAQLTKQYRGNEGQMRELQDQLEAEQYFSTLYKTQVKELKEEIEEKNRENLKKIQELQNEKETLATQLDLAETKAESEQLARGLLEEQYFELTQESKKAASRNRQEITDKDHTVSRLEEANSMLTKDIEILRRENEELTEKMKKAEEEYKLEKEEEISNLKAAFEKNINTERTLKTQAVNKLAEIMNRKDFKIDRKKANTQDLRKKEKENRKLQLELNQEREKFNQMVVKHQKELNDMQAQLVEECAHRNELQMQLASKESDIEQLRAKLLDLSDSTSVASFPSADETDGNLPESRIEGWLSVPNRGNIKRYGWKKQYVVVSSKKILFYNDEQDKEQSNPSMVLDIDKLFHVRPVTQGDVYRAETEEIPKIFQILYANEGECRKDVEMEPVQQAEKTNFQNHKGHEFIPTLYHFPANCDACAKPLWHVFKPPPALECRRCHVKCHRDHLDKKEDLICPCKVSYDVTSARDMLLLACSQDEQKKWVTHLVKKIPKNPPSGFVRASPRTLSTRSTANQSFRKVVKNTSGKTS
VALUE TYPE: IC50 (µM)

>>> endpoint_result("COc1ccc2c(c1)CC(C(=O)Nc1ccc(-c3c[nH]nc3C)cc1OCCN(C)C)CO2 (stereo not given)")
0.0163
>>> endpoint_result("COc1ccc2c(c1)CC(C(=O)Nc1ccc(-c3ccncc3)cc1OCCN(C)C)CO2 (stereo not given)")
0.17
>>> endpoint_result("COc1ccc2c(c1)CC(C(=O)Nc1ccc(-c3cn[nH]c3)cc1OCCN(C)C)CO2 (stereo not given)")
0.0034
>>> endpoint_result("CN(C)CCOc1cc(-c2ccncc2)ccc1NC(=O)C1COc2ccc(Cl)cc2C1 (stereo not given)")
0.135
>>> endpoint_result("COc1ccc2c(c1)C[C@@H](C(=O)Nc1ccc(-c3ccncc3)cc1OCCN(C)C)CO2")
0.523

###

Species on record: Homo sapiens
EXPERIMENT SUMMARY: Selectivity ratio of IC50 for ROCK1 (unknown origin) to IC50 for ROCK2 (unknown origin)
VALUE TYPE: Ratio IC50

>>> endpoint_result("COc1ccc2c(c1)CC(C(=O)Nc1ccc(-c3ccncc3)cc1OCCN(C)C)CO2 (stereo not drawn)")
18.9
>>> endpoint_result("CN(C)CCOc1cc(-c2ccncc2)ccc1NC(=O)C1COc2ccc(F)cc2C1 (stereo not drawn)")
14.8
>>> endpoint_result("COc1ccc2c(c1)C[C@@H](C(=O)Nc1ccc(-c3ccncc3)cc1OCCN(C)C)CO2")
3
>>> endpoint_result("Cc1ccc2c(c1)CC(C(=O)Nc1ccc(-c3ccncc3)cc1OCCN(C)C)CO2 (stereo not drawn)")
7
>>> endpoint_result("CN(C)CCOc1cc(-c2ccncc2)ccc1NC(=O)C1COc2ccc(Cl)cc2C1 (stereo not drawn)")
6.1
>>> endpoint_result("CN(C)CCOc1cc(-c2ccncc2)ccc1NC(=O)C1COc2ccccc2C1 (stereo not drawn)")
4.3
>>> endpoint_result("COc1ccc2c(c1)CC(C(=O)Nc1ccc(-c3c[nH]nc3C)cc1OCCN(C)C)CO2 (stereo not drawn)")
13.6
>>> endpoint_result("COc1ccc2c(c1)C[C@H](C(=O)Nc1ccc(-c3ccncc3)cc1OCCN(C)C)CO2")
22.7

###

SYSTEM TESTED: Rho-associated protein kinase 2 (Homo sapiens)
Sequence (O75116 whole entry): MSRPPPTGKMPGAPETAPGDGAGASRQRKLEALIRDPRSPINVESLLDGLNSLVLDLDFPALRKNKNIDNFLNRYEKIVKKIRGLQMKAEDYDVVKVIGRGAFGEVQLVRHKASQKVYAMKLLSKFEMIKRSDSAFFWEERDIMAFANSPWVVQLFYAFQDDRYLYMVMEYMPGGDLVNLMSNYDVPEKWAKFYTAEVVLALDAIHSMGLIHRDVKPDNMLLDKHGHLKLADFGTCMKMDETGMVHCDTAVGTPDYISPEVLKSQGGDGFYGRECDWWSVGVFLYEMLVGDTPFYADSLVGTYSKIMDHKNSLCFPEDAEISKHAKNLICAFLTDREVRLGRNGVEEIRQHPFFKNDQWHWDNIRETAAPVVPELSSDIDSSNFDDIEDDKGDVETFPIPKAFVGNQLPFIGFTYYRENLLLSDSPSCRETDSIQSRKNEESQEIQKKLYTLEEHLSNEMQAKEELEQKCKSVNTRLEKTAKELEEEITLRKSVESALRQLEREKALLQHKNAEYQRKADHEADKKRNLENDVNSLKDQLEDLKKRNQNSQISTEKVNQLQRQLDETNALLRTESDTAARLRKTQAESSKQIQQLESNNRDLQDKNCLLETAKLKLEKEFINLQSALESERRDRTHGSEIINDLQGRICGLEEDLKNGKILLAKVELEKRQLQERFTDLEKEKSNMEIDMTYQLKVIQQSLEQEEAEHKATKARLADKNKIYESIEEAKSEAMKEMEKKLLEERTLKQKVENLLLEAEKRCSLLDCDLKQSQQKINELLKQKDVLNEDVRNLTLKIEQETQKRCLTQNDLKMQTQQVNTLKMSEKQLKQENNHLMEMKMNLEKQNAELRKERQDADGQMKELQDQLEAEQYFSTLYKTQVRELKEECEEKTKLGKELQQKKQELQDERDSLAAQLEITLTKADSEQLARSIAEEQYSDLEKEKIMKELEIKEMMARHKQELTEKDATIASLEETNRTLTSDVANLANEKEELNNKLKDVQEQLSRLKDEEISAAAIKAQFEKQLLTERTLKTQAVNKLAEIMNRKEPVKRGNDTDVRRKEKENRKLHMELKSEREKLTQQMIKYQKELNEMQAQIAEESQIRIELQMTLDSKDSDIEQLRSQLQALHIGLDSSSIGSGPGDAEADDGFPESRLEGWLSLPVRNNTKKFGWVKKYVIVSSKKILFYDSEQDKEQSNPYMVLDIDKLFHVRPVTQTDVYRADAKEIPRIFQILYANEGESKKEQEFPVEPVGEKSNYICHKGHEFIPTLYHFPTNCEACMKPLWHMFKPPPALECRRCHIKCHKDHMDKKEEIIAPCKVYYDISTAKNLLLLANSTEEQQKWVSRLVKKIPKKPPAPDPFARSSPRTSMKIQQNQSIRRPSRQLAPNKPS
VALUE TYPE: IC50 (nM)

>>> endpoint_result("CN(C)CCOc1cc(-c2ccncc2)ccc1NC(=O)C1COc2ccccc2C1 (stereo not drawn)")
7
>>> endpoint_result("COc1ccc2c(c1)CC(C(=O)Nc1ccc(-c3c[nH]nc3C)cc1OCCN(C)C)CO2 (stereo not drawn)")
1.2
>>> endpoint_result("CN(C)CCOc1cc(-c2ccncc2)ccc1NC(=O)C1COc2ccc(F)cc2C1 (stereo not drawn)")
7
